// values below are reported IC50
# System: A549
# test summary: Antiproliferative activity against human A549 cells after 48 hrs by MTS assay
# Assay type: functional, cell-based
# condition description: A549, 48 h

smiles input | system | readout value
C=C1C(=O)[C@@]23CC[C@@H]4C(C)(C)[C@@H](O)CC[C@@]4(C)[C@@H]2[C@@H](OC(C)=O)C[C@]1(O)C3 | A549 | 4.4 µM
C=C1[C@@H](O)[C@@]23CC[C@@H]4C(C)(C)[C@H](O)CC[C@@]4(C)[C@@H]2[C@@H](O)C[C@]1(O)C3 | A549 | > 40 µM
C=C1[C@@H](O)[C@@]23CC[C@@H]4C(C)(C)[C@H](O)CC[C@@]4(C)[C@@H]2[C@@H](OC(C)=O)C[C@]1(O)C3 | A549 | > 40 µM

Task: State its IC50 on A549: `C=C1C(=O)[C@]23C[C@@]1(O)C[C@H](OC(C)=O)[C@H]2[C@@]1(C)[C@H](C[C@H]3O)C(C)(C)CC[C@@H]1O`
Result: 19.6 µM

Task: State its IC50 on A549: `C=C1[C@@H](O)[C@@]23CC[C@@H]4[C@@](C)(CO)CCC[C@@]4(C)[C@@H]2[C@@H](O)C[C@]1(O)C3`
Result: > 40 µM

Task: State its IC50 on A549: `C=C1[C@@H](O)[C@@]23CC[C@@H]4[C@@](C)(CO)CCC[C@@]4(C)[C@@H]2[C@@H](OC(C)=O)C[C@]1(O)C3`
Result: > 40 µM

---

# Test system: A549
# test summary: Antiproliferative activity against human A549 cells after 48 hrs by MTS assay
# Format: functional, cell-based
# condition description: A549, 48 h
pIC50: −log10 of the molar value.
result type: pIC50

Consider the following illustrative entries.
smiles input | system | pIC50
C[C@@]1(CO)CCC[C@@]2(C)[C@H]1C[C@@H](O)C1=CC(=O)CC[C@@]12O | A549 | < 4.40
C=C1[C@@H](O)[C@@]23CC[C@@H]4C(C)(C)[C@@H](O)CC[C@@]4(C)[C@@H]2[C@@H](OC(C)=O)C[C@]1(O)C3 | A549 | < 4.40
CC(=O)O[C@H]1C(=O)[C@@]2(C)[C@H]([C@H](OC(=O)c3ccccc3)[C@]3(O)C[C@H](OC(=O)[C@H](O)[C@@H](NC(=O)c4ccccc4)c4ccccc4)C(C)=C1C3(C)C)[C@]1(OC(C)=O)CO[C@@H]1C[C@@H]2O | A549 | > 8.10

Task: Record request: pIC50 value, item `C=C1[C@@H](O)[C@@]23CC[C@H]4[C@@](C)(CCC[C@@]4(C)C=O)[C@@H]2[C@@H](OC(C)=O)C[C@]1(O)C3`
Result: < 4.40

Task: Record request: pIC50 value, item `C=C1C(=O)[C@]23C[C@@]1(O)C[C@H](OC(C)=O)[C@H]2[C@@]1(C)[C@H](C[C@H]3O)[C@](C)(CO)CC[C@@H]1O`
Result: < 4.40

Task: Record request: pIC50 value, item `C=C1C(=O)[C@]23C[C@@]1(O)C[C@H](OC(C)=O)[C@H]2[C@@]1(C)[C@H](C[C@H]3O)[C@](C)(COC(C)=O)CC[C@@H]1O`
Result: 4.87
